List of normalized RNA/DNA level without ligand (log10) values.
B1: library; a variant is named by its letters at N, in order (parent)
chain: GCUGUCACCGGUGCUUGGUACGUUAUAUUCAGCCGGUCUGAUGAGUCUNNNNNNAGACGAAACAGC

# Variants of: B1
# assay-comment: normalized RNA/DNA level without ligand (relative to sTRSVctl = 100) (log10 (% of sTRSVctl)); HEK293T overexpressing SLC46A1; higher = less ribozyme self-cleavage, higher mRNA level
# particulars: without (6R,S)-folinic acid; ligand present: no
reported-metric: normalized RNA/DNA level without ligand (log10)

{"columns": ["mutation-descriptor", "numeric-readout"],
 "data": [
  ["CCGAGG", 2.01],
  ["GCACCC", 2.02],
  ["GUUAAG", 1.96],
  ["CACGUG", 2.03],
  ["CACUCC", 2.04]
]}
